meta.source: ChEMBL document CHEMBL1140493

Tested on: Escherichia coli
Method description: Antimicrobial activity against Escherichia coli after 24 hrs by twofold serial dilution method
Type: functional
Condition set: read-out: -Log MIC
Rule: MIC below 80 µM gives MET. Equal to or above 80 µM gives NOT MET.

Use these answered entries as a reference point.
- C/C=C/C=C/C(=O)Nc1ccc(C)cc1: NOT MET
- C/C=C/C=C/C(=O)N(c1ccccc1)c1ccccc1: MET
- C/C=C/C=C/C(=O)Nc1ccc([N+](=O)[O-])cc1: MET
- C/C=C/C=C/C(=O)Nc1cccc(Cl)c1: MET
- C/C=C/C=C/C(=O)OCCC(C)C: NOT MET
- O=C(O)c1cn(C2CC2)c2cc(N3CCNCC3)c(F)cc2c1=O: MET

Q: Lab note: confirm whether the reported MIC for this compound is below 80 µM, equality not counting. compound: "C/C=C/C=C/C(=O)OC(C)(C)C"
Result: NOT MET

Q: Lab note: confirm whether the reported MIC for this compound is below 80 µM, equality not counting. compound: "C/C=C/C=C/C(=O)OCCCCC"
Result: NOT MET
